Data export: IC50 values recorded with Acetylcholinesterase (Homo sapiens, UniProt P22303).
Sequence (P22303 whole entry): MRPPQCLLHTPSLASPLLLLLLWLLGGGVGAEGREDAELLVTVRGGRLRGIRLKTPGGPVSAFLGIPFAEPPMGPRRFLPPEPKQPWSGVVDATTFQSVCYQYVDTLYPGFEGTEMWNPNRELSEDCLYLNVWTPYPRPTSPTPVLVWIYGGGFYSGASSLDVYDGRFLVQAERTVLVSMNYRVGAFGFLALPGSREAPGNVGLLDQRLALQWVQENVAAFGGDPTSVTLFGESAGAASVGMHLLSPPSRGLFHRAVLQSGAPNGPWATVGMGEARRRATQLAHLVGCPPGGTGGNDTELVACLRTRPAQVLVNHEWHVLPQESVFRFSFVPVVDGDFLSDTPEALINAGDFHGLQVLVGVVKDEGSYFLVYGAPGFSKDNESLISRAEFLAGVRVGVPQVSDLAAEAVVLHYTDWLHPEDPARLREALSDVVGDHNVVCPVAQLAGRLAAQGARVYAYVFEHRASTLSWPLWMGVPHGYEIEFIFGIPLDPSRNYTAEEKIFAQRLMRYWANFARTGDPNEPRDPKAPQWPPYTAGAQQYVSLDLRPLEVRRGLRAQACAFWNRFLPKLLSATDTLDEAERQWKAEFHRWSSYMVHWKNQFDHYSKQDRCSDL
Response body: numeric value in nM, unit text excluded.

Record excerpt, results attached:
[[record]]
smiles_string = "CNC(=O)c1sc(-c2ccnc(NC(=O)CNCCNc3c4c(nc5ccccc35)CCCC4)c2)nc1OCC1CC1"
target_or_test_system = "Acetylcholinesterase (Homo sapiens, UniProt P22303)"
endpoint_result = 1.2

[[record]]
smiles_string = "CNC(=O)c1sc(-c2ccnc(NC(=O)CNCCNc3c4c(nc5ccccc35)CCCC4)c2)nc1OCC(C)C"
target_or_test_system = "Acetylcholinesterase (Homo sapiens, UniProt P22303)"
endpoint_result = 49.2


Enquiry: Hello, I am looking for reported IC50 with Acetylcholinesterase (Homo sapiens, UniProt P22303) for CNC(=O)c1sc(-c2ccnc(NC(=O)C3CC3)c2)nc1OCCc1cn(CCNc2c3c(nc4ccccc24)CCCC3)nn1 . Could you help?
Return: 269

Enquiry: Hello, I am looking for reported IC50 with Acetylcholinesterase (Homo sapiens, UniProt P22303) for CNC(=O)c1sc(-c2ccnc(NC(=O)CNCCNc3c4c(nc5ccccc35)CCCC4)c2)nc1OCC1CCC1 . Could you help?
Return: 155
